experimental.system: recombinant human mu (MOR) opioid receptor (Homo sapiens (Human), UniProt P35372)
protocol.text: Opioid receptor radioligand binding assay, MOR
assay.setup: HEK293 cell membranes, 0.5 nM [3H]DAMGO; read-out: MOR, IC50
Square brackets hold non-standard residues; d marks the D form. Peptide text beside a SMILES is read from it. * marks the point of attachment. Piperidin1yl(4-NH2,4-CO2Me) = COC(=O)C1(N)CCN(*)CC1; dAla(cPr) = N[C@H](CC1CC1)C(=O)O
observable: IC50 (µM)
Use µM as the unit, but write only the number.

# lookup: IC50 of CC(C)C[C@@H](NC(=O)[C@@H](Cc1ccccc1)NC(=O)[C@H](N)Cc1ccccc1)C(=O)N[C@H](CCCCN)C(=O)N1CCC(N)(C(=O)OCCN)C1 (stereo partly shown) [Compound 55]
8.53

# lookup: IC50 of COC(=O)C1(N)CCN(C(=O)[C@@H](CCCNC(=N)N)NC(=O)[C@@H](CC2CC2)NC(=O)[C@@H](Cc2ccccc2)NC(=O)[C@H](N)Cc2ccccc2)CC1 [Compound 126] (H-[dF][dF][dAla(cPr)][dR]-{Piperidin1yl(4-NH2,4-CO2Me)})
3.03

# lookup: IC50 of CC(C)C[C@@H](NC(=O)[C@@H](Cc1ccccc1)NC(=O)[C@H](N)Cc1ccccc1)C(=O)N[C@H](CCCCN)C(=O)NC1CCN(C(=O)C(N)=O)CC1 [Compound 13-34]
2.98

# lookup: IC50 of CC(C)C[C@@H](NC(=O)[C@@H](Cc1ccccc1)NC(=O)[C@H](N)Cc1ccccc1)C(=O)N[C@H](CCCCN)C(=O)N1CCC(NC(=O)C(=O)N(C)C)CC1 [Compound 13-16]
0.215
